Target: P2Y12 (Homo sapiens, UniProt Q9H244)
Sequence (Q9H244 whole entry): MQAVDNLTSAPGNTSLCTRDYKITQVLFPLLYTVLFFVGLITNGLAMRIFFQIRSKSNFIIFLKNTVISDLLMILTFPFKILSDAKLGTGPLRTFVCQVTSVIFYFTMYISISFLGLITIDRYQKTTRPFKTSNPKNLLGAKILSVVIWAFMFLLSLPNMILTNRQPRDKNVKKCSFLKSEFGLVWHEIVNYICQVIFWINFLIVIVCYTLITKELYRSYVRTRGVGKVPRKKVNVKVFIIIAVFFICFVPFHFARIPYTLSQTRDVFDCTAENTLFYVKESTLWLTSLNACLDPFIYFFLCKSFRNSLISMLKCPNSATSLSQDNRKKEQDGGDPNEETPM
Assay: GTP shift experiments (radioligand binding in presence and absence of GTP)
Parameters: Membranes were prepared from human outdated platelets from the blood bank; from tissue; host or cells: human platelets (University of Bonn blood bank), membrane preparation
Conditions: presence and absence of GTP (100 μM); no shift = antagonist rather than agonist
parameterMeasured: right-shift of the concentration-inhibition curve in GTP shift experiments

Nc1c(S(=O)(=O)O)cc(Nc2ccc(Nc3nc(Cl)nc(Nc4cccc(S(=O)(=O)O)c4)n3)c(S(=O)(=O)O)c2)c2c1C(=O)c1ccccc1C2=O [Reactive Blue 2, reference compound]    did not
Nc1c(S(=O)(=O)[O-])cc(Nc2ccc(Nc3ncccn3)c(S(=O)(=O)[O-])c2)c2c1C(=O)c1ccccc1C2=O.[Na+].[Na+]    did not
COc1nc(Cl)nc(Nc2ccc(Nc3cc(S(=O)(=O)[O-])c(N)c4c3C(=O)c3ccccc3C4=O)cc2S(=O)(=O)[O-])n1.[Na+].[Na+]    did not
